# TARGET_OF_ASSAY: human MET kinase Y1230H (Homo sapiens, UniProt P08581, Y1230H)
# Construct: GST-tagged recombinant human MET kinase domain
# Sequence (P08581 1078-1345 Y1230H): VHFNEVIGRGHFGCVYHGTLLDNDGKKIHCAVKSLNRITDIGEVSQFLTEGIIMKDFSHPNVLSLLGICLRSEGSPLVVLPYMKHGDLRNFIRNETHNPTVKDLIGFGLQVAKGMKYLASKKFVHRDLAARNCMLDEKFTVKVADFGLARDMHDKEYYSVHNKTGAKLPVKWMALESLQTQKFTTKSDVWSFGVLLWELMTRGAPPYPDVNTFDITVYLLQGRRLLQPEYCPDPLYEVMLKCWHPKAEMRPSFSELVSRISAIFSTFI
# ASSAY_INFO: c-Met Enzyme Assay, Y1230H mutant
# PROTOCOL_CONDITIONS: averaged IC50; Y1230H 5 nM; 60-minute incubation at 22° C.; read-out: Y1230 H IC50
ENDPOINT_LABEL: pIC50
Please keep in mind that pIC50 is minus log10 of the molar concentration; only the number is needed.

Record COc1ccc2nccc(Oc3ccc(NC(=O)c4cn(C(C)C)c(C)c(-c5ccc(F)cc5)c4=O)nc3)c2c1 [Example 33] ; system human MET kinase Y1230H (Homo sapiens, UniProt P08581, Y1230H); pIC50 = 7.95

Record for COc1cc2nccc(Oc3ccc(NC(=O)c4cn(C(C)C)cc(-c5ccc(F)cc5)c4=O)cn3)c2cc1OC [Example 58] under target or system human MET kinase Y1230H (Homo sapiens, UniProt P08581, Y1230H): pIC50 reported as 8.28

// pIC50 (human MET kinase Y1230H (Homo sapiens, UniProt P08581, Y1230H)) for COc1cc2nccc(Oc3ccc(NC(=O)c4cn(C5CCOCC5)cc(-c5ccc(F)cc5)c4=O)nc3)c2cc1OC [Example 12] = 8.27

Case COc1cc2nccc(Oc3ccc(NC(=O)c4cn(C(C)C)c(C)c(-c5ccc(F)cc5)c4=O)nc3)c2cc1OC [Example 27] , human MET kinase Y1230H (Homo sapiens, UniProt P08581, Y1230H), pIC50 recorded as 8.64

For COc1cc2nccc(Oc3ccc(NC(=O)c4cn(CC5CCOCC5)cc(-c5ccc(F)cc5)c4=O)nc3)c2cc1OC [Example 8] on human MET kinase Y1230H (Homo sapiens, UniProt P08581, Y1230H), measured pIC50 was 8.07

Tested system human MET kinase Y1230H (Homo sapiens, UniProt P08581, Y1230H); pIC50 recorded for COc1cc2nccc(Oc3ccc(NC(=O)c4cn(CCC(C)C)cc(-c5ccc(F)c(F)c5)c4=O)nc3)c2cc1OC [Example 35] was 7.74

Test item COc1cc2nccc(Oc3cnc(NC(=O)c4cn(C(C)C)c(C)c(-c5ccc(F)cc5)c4=O)nc3)c2cc1OC [Example 55] ; human MET kinase Y1230H (Homo sapiens, UniProt P08581, Y1230H); reported pIC50 was 8.55

Summary: COc1cc2nccc(Oc3ccc(NC(=O)c4cn(CCN(C)C)cc(-c5ccc(F)c(F)c5)c4=O)nc3)c2cc1OC [Example 43] , human MET kinase Y1230H (Homo sapiens, UniProt P08581, Y1230H), pIC50 = 8.54

Entry COc1cc2nccc(Oc3ccc(NC(=O)c4cn(C(C)C)cc(-c5ccc(F)c(F)c5)c4=O)nc3)c2cc1OC [Example 6] : pIC50 on human MET kinase Y1230H (Homo sapiens, UniProt P08581, Y1230H) = 7.62

Sample COc1cc2nccc(Oc3ccc(NC(=O)c4cn(CC(C)C)cc(-c5ccc(F)cc5)c4=O)nc3)c2cc1OC [Example 11] , system: human MET kinase Y1230H (Homo sapiens, UniProt P08581, Y1230H). Its pIC50 is 8.03

# lookup: CCCn1cc(C(=O)Nc2ccc(Oc3ccnc4cc(OC)c(OC)cc34)cn2)c(=O)c(-c2ccc(F)cc2)c1 [Example 10] on human MET kinase Y1230H (Homo sapiens, UniProt P08581, Y1230H), pIC50 = 8.21

Bench note, human MET kinase Y1230H (Homo sapiens, UniProt P08581, Y1230H): entry COc1ccc2nccc(Oc3ccc(NC(=O)c4cn(CCN(C)C)cc(-c5ccc(F)cc5)c4=O)nc3)c2c1 [Example 47] , its pIC50 = 7.53

Value (pIC50, human MET kinase Y1230H (Homo sapiens, UniProt P08581, Y1230H)) for record CC(C)n1cc(C(=O)Nc2ccc(Oc3ccnc4cc(OC(F)(F)F)ccc34)cn2)c(=O)c(-c2ccc(F)cc2)c1 [Example 50] = 6.40

Observed pIC50 on human MET kinase Y1230H (Homo sapiens, UniProt P08581, Y1230H), entry CCOc1ccc2c(Oc3ccc(NC(=O)c4cn(C(C)C)cc(-c5ccc(F)cc5)c4=O)nc3)ccnc2c1 [Example 52] , equals 7.49

For CCCC(CCC)n1cc(C(=O)Nc2ccc(Oc3ccnc4cc(OC)c(OC)cc34)cn2)c(=O)c(-c2ccc(F)cc2F)c1 [Example 17] on human MET kinase Y1230H (Homo sapiens, UniProt P08581, Y1230H), measured pIC50 was 7.57

Field pIC50 (human MET kinase Y1230H (Homo sapiens, UniProt P08581, Y1230H)), entry COc1cc2nccc(Oc3ccc(NC(=O)c4cn(C(C)C)cc(-c5ccc(F)cc5Cl)c4=O)nc3)c2cc1OC [Example 18] : 8.34

Form field pIC50 for item COc1ccc(-c2cn(C(C)C)cc(C(=O)Nc3ccc(Oc4ccnc5cc(OC)c(OC)cc45)cn3)c2=O)c(F)c1 [Example 31] on human MET kinase Y1230H (Homo sapiens, UniProt P08581, Y1230H): 7.01

Assay human MET kinase Y1230H (Homo sapiens, UniProt P08581, Y1230H), sample COc1cc2nccc(Oc3ccc(NC(=O)c4cn(CCN(C)C)cc(-c5ccc(F)cc5F)c4=O)nc3)c2cc1OC [Example 44] , pIC50 read: 8.57

Noted pIC50 for COc1cc2nccc(Oc3ccc(NC(=O)c4c[nH]cc(-c5ccc(F)cc5)c4=O)nc3)c2cc1OC [Example 26] , tested on human MET kinase Y1230H (Homo sapiens, UniProt P08581, Y1230H): 7.77

Measured on human MET kinase Y1230H (Homo sapiens, UniProt P08581, Y1230H), COc1cc2nccc(Oc3cnc(NC(=O)c4cn(C(C)C)cc(-c5ccc(F)cc5)c4=O)nc3)c2cc1OC [Example 54] has a documented pIC50 of 8.14

Measured pIC50 for this entry COc1cc2nccc(Oc3ccc(NC(=O)c4cn(C(C)C)cc(-c5ccc(F)cc5C)c4=O)nc3)c2cc1OC [Example 19] on human MET kinase Y1230H (Homo sapiens, UniProt P08581, Y1230H): 8.57
